- assayed system: BRD9 (Homo sapiens)
- Construct: made in house
- protocol summary: Isothermal titration calorimetry, BRD9
- Type: binding
- measurement setup: LE = ΔG/N, N number of non-hydrogen atoms
measurement name: LE (ligand efficiency)

- molecule: "COc1ccc(F)cc1-c1nc(N)nc2[nH]cnc12 [Compound 7b]"
  LE (ligand efficiency): 0.45
- molecule: "Nc1nc(-c2cc(Br)cc3c2OCC3)c2nc[nH]c2n1 [Compound 11]"
  LE (ligand efficiency): 0.43
- molecule: "COc1ccc(Br)cc1-c1nc(N)nc2[nH]cnc12 [Compound 7d]"
  LE (ligand efficiency): 0.44

Please give the measured LE (ligand efficiency) for this molecule: COc1ccc(Cl)cc1-c1nc(N)nc2[nH]cnc12 [Compound 7c]
0.45

* * *

- assayed system: BRD4(1) (Homo sapiens)
- Construct: made in house
- protocol summary: Isothermal titration calorimetry, BRD4(1)
- Type: binding
- measurement setup: ITC, 50 mM HEPES pH 7.5, 150 mM NaCl, 15 °C, reverse titration, triplicate; read-out: KD
Listing of recorded Kd by entry.
Provide only the numeric value, understood in µM.

- line notation: "Nc1nc(-c2ccccc2)c2nc[nH]c2n1"
  unit of measurement: "µM"
  Kd: 12
- line notation: "Nc1nc(-c2cc(Br)cc3c2OCC3)c2nc[nH]c2n1"
  unit of measurement: "µM"
  Kd: 1.37
- line notation: "COc1ccc(Cl)cc1-c1nc(N)nc2[nH]cnc12"
  unit of measurement: "µM"
  Kd: 2.04

Returns the measured Kd for the input compound. Input: COc1ccc(Br)cc1-c1nc(N)nc2[nH]cnc12
4.65

* * *

- assayed system: BAZ2B (Homo sapiens)
- Construct: representative BRDs from other structural subfamilies (family I, PCAF); family III, CREBBP; family IV, BRD9; family V, BAZ2B; made in house
- Sequence (Q9UIF8 2060-2164 limits assumed): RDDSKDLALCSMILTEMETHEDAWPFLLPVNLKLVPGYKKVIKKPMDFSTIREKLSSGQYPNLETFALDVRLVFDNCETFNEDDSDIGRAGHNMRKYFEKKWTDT
- protocol summary: Protein stability (thermal) shift assay, BAZ2B
- Type: binding
- measurement setup: compound 10 μM, protein 2 μM; average of triplicate; read-out: ΔTm Shift, BAZ2BA
measurement name: ΔTm at 10 µM

// known answers, use as guide
- line notation: "COc1ccc(Br)cc1-c1nc(Cl)nc2[nH]cnc12"
  ΔTm at 10 µM: "-0.7 °C"
- line notation: "COc1ccc(F)cc1-c1ncnc2[nH]c(C)nc12"
  ΔTm at 10 µM: "0.2 °C"

Lab note: need ΔTm at 10 µM for COc1ccc(Cl)cc1-c1nc(N)nc2[nH]cnc12 on BAZ2B (Homo sapiens), anyone have it?
0.272 °C

Return ΔTm at 10 µM measured with BAZ2B (Homo sapiens) given this molecule: COc1ccc(Br)cc1-c1nc(N)nc2[nH]cnc12
0.237 °C

Reported ΔTm at 10 µM for BAZ2B (Homo sapiens), given Nc1nc(-c2ccc(COc3cccc(C(F)(F)F)c3)cc2)c2nc[nH]c2n1 ?
-1 °C

Could you share what ΔTm at 10 µM was measured for CCOc1ccc(Br)cc1-c1nc(N)nc2[nH]cnc12 , tested on BAZ2B (Homo sapiens)?
-0.5 °C

Item Clc1nc(Cl)c2nc[nH]c2n1 with BAZ2B (Homo sapiens) - ΔTm at 10 µM?
-0.1 °C

Please tell me: ΔTm at 10 µM of Nc1nc(-c2ccccc2)c2nc[nH]c2n1 , system BAZ2B (Homo sapiens)?
0.537 °C

Form field - read-out: ΔTm at 10 µM; system: BAZ2B (Homo sapiens); submitted item: COc1ccc(-c2nc(N)nc3[nH]cnc23)cc1
0.00333 °C

Please state recorded ΔTm at 10 µM (tested on BAZ2B (Homo sapiens)) of COc1ccc(Cl)cc1-c1nc(O)nc2[nH]cnc12
1.2 °C

Param readout = ΔTm at 10 µM; param system = BAZ2B (Homo sapiens); param query = Nc1nc(-c2ccc(Oc3ccccc3)cc2)c2nc[nH]c2n1 ; response: value
0.273 °C

Form field: ΔTm at 10 µM recorded for COc1ccc(Br)cc1-c1nc(N)nc2c1ncn2CC(C)=O with BAZ2B (Homo sapiens) (enter value)
-0.06 °C

Give ΔTm at 10 µM (BAZ2B (Homo sapiens)) of the following molecule: Cn1cnc2c(-c3cccc(OCc4ccc(Cl)cc4)c3)nc(N)nc21
0.6 °C

Request: ΔTm at 10 µM, test system BAZ2B (Homo sapiens), entry COc1ccc(-c2nc(N)nc3c2ncn3C)cc1
-1.3 °C

Param readout= ΔTm at 10 µM; system= BAZ2B (Homo sapiens); entry= COc1ccc(F)cc1-c1nc(O)nc2[nH]cnc12 ; returns value.
0.277 °C

GET /values?readout=ΔTm at 10 µM&system=BAZ2B (Homo sapiens)&item= COc1cccc(OCC(C)C)c1-c1nc(N)nc2[nH]cnc12
-0.147 °C

Identify the measured ΔTm at 10 µM of COc1ccccc1-c1nc(N)nc2[nH]cnc12 for BAZ2B (Homo sapiens).
-0.217 °C

Lab note: need ΔTm at 10 µM with BAZ2B (Homo sapiens) for entry Nc1nc(-c2ccc(OCc3ccccc3)c(Cl)c2)c2nc[nH]c2n1 , please look it up.
-0.367 °C

* * *

- assayed system: BRD4(2) (Homo sapiens, UniProt O60885)
- Construct: made in house
- protocol summary: Protein stability (thermal) shift assay, BRD4(2)
- Type: binding
- measurement setup: compound 10 μM, protein 2 μM; average of triplicate
measurement name: ΔTm at 10 µM (°C)
Enter your answer as a number in °C; do not include the unit.

Worked cases, answers included:
- molecule: "CCCCOc1cc(Br)cc(-c2nc(N)nc3[nH]cnc23)c1 [Compound 5a]"
  measurement: 1.3
- molecule: "Nc1nc(-c2ccccc2)c2nc[nH]c2n1 [Compound 3a, 2-Amino-6-phenyl-9H-purine]"
  measurement: 0.5

For the molecule shown here, Nc1nc(-c2ccc(OCc3ccccc3)cc2)c2nc[nH]c2n1 [Compound 3f] , give the reported ΔTm at 10 µM.
-51.9

Suppose we examine the molecule COc1ccc(Br)cc1-c1nc(N)nc2c1ncn2C [Compound 8b] ; what ΔTm at 10 µM value has been reported?
0.337

GET /values?readout=ΔTm at 10 µM&item= Nc1nc(-c2ccc(OCc3ccccc3)c(Cl)c2)c2nc[nH]c2n1 [Compound 4a]
-2.6

# get_value(readout='ΔTm at 10 µM', item= COc1ccc(F)cc1-c1nc(N)nc2[nH]cnc12 [Compound 7b] )
0.1

Look up ΔTm at 10 µM: Clc1nc(Cl)c2nc[nH]c2n1 [Compound 1, 2,6-dichloro-9H-purine]
0.5

What does the record list as ΔTm at 10 µM for Cn1cnc2c(-c3ccc(Oc4ccccc4)cc3)nc(N)nc21 [Compound 3e] ?
0.8

What ΔTm at 10 µM value was documented for this molecule, Nc1nc(-c2cccc(OCc3ccc(Cl)cc3)c2)c2nc[nH]c2n1 [Compound 4d] ?
1

* * *

- assayed system: BRD3(2) (Homo sapiens)
- Construct: made in house
- Sequence (Q15059 306-415 limits assumed): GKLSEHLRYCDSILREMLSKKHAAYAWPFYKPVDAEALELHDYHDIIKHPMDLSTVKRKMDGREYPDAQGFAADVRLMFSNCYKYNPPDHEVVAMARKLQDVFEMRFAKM
- protocol summary: Protein stability (thermal) shift assay, BRD3(2)
- Type: binding
- measurement setup: compound 10 μM, protein 2 μM; average of triplicate
Reported values of ΔTm at 10 µM for individual entries
Reply numerically in °C, unit not repeated.

Here's what some known entries look like.
- molecule: "CCCCOc1cc(Br)cc(-c2nc(N)nc3c2ncn3C)c1 [Compound 5b]"
  unit of measurement: "°C"
  measurement: 0.5
- molecule: "Nc1nc(-c2ccc(Oc3ccccc3)cc2)c2nc[nH]c2n1 [Compound 3d, 2-Amino-6-(4-phenoxyphenyl)-9H-purine]"
  unit of measurement: "°C"
  measurement: 0.7
- molecule: "Nc1nc(-c2cc(Br)cc3c2OCC3)c2nc[nH]c2n1 [Compound 11]"
  unit of measurement: "°C"
  measurement: 5.4
- molecule: "COc1ccc(Br)cc1-c1nc(Cl)nc2[nH]cnc12 [Compound 8a]"
  unit of measurement: "°C"
  measurement: -0.00857
- molecule: "COc1ccc(F)cc1-c1nc(N)nc2[nH]cnc12 [Compound 7b]"
  unit of measurement: "°C"
  measurement: 0.8

Item Nc1nc(-c2ccc3c(c2)OCCO3)c2nc[nH]c2n1 [Compound 4c] has what recorded ΔTm at 10 µM?
0.9

* * *

Parameter ΔTm at 10 µM: see the listing below.
- assayed system: BRD9 (Homo sapiens, UniProt Q9H8M2)
- Construct: made in house
- Sequence (Q9H8M2 136-240 limits assumed): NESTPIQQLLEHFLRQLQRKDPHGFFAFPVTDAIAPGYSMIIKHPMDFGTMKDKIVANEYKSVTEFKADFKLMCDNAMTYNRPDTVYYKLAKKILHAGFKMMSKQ
- protocol summary: Protein stability (thermal) shift assay, BRD9
- Assay type: binding
- measurement setup: compound 10 μM, protein 2 μM; average of triplicate; read-out: ΔTm Shift, BRD9
Please give the number followed by its unit.

Reference set, count: 3
- line notation: "COc1cccc(OC)c1-c1nc(N)nc2[nH]cnc12"
  ΔTm at 10 µM: "-0.1 °C"
- line notation: "CCCCOc1cc(Br)cc(-c2nc(N)nc3c2ncn3C)c1"
  ΔTm at 10 µM: "-0.56 °C"
- line notation: "COc1ccc(-c2nc(N)nc3[nH]cnc23)cc1"
  ΔTm at 10 µM: "0 °C"

Can you look up the measured ΔTm at 10 µM of Cn1cnc2c(-c3ccc(Oc4ccccc4)cc3)nc(N)nc21 for me?
0.257 °C

Can you look up the measured ΔTm at 10 µM of COc1ccc(Br)cc1-c1nc(O)nc2[nH]cnc12 for me?
-0.66 °C
